# tested.target: human cloned 5-HT2A receptor, expressed in L929 cells (Homo sapiens, UniProt P28223)
# Construct: expressed in transfected cells; host or cells: L929 cells
# Sequence (P28223 whole entry): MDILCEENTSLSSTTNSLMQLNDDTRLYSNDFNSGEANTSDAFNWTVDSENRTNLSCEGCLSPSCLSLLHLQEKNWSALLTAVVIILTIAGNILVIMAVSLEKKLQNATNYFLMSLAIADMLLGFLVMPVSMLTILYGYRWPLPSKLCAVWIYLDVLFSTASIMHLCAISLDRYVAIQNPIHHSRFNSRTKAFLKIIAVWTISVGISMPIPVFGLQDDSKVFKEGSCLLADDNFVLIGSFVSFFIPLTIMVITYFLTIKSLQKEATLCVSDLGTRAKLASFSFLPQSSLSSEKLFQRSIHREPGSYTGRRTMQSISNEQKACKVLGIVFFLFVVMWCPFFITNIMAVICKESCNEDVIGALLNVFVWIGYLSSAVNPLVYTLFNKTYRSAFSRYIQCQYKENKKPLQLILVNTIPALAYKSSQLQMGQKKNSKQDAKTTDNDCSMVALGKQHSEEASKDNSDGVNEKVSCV
# protocol.summary: In vitro binding affinity for 5-HT2A receptor ([125I]R91150 radioligand binding)
# measurement.setup: human cloned 5-HT2A receptor in L929 cells, [125I]R91150; read-out: 5-HT2A pIC50 (converted)
Rule: measured IC50 below 9 nM gets y; anything equal to or greater than 9 nM gets n.

C=CCOC(=O)N1CCN(CC2CC3c4ccccc4Cc4ccc(F)cc4C3O2)CC1 (stereo not drawn) | y
CN1c2ccccc2[C@H]2C[C@@H](CN3CCC(O)C3)O[C@@H]2c2ccccc21 (relative stereo) | n
CN(C)CCC1CN(C[C@H]2C[C@@H]3c4ccccc4Cc4ccc(F)cc4[C@@H]3O2)CCO1 (stereo partly drawn) | n

// switching to the query compound
[in] IC50 strictly < 9 nM for this compound? COCC(=O)N1CCN(CC2CC3c4ccccc4Cc4ccc(F)cc4C3O2)CC1 (stereo not drawn)
[out] y
